Consider the following molecules; for each one, report its cytotoxicity at 70.5 h.
- Procedure Summary: Human HepG2 cell viability assay in 384 well format
- Format: toxicity, cell-based
- Design: dose 125 nL, time 70.5 hour; concentration not given beside the values
- Measurement Setup: HepG2 cells, read-out: Inhibition
State the answer as a number, implicitly in %.

Consider Cc1nn(C)c(C)c1NC(=O)c1cccc(CN2C[C@H]3CC[C@@H](C2)N3)c1 . Its measured cytotoxicity at 70.5 h is -13.8

Consider COc1ccc(NC(=O)Cn2c(=O)nc(N)c3cc(C)sc32)cc1 . Its measured cytotoxicity at 70.5 h is -13.1

Consider Cn1c(Nc2ccc(F)cc2)c(C#N)c(=O)n(C)c1=O . Its measured cytotoxicity at 70.5 h is -4.76

Consider Cc1nc[nH]c1CN1CCOC(CCNC(=O)c2ccsc2)C1 (stereo unspecified) . Its measured cytotoxicity at 70.5 h is 2.08

Consider Cc1nc(CN(C)CC2CCCN(CCc3ccc(Cl)cc3)C2)n(C)n1 (stereo unspecified) . Its measured cytotoxicity at 70.5 h is -19.1

Consider CCC(=O)NC1CCCN(Cn2nc(C(C)(C)C)ccc2=O)C1 (stereo unspecified) . Its measured cytotoxicity at 70.5 h is -4.43

* * *

- Procedure Summary: Human HepG2 cell viability assay in 384 well format
- Format: toxicity, cell-based
- Set-up: dose 125 nL, time 70.5 hour; concentration not given beside the values
- Measurement Setup: HepG2 cells, read-out: Inhibition
Consider the following compounds; for each one, report its cytotoxicity at 70.5 h.
State the answer as a number, implicitly in %.

Consider Cc1cc(CNCc2c(C)n(CC(C)C)c3ccccc23)[nH]n1 . Its measured cytotoxicity at 70.5 h is -5.55

Consider COCc1ccccc1CNC(=O)CN1CCC2(CCOC2)C1 (stereo not drawn) . Its measured cytotoxicity at 70.5 h is 25

Consider CCC(=O)N1CCCC1c1nccnc1Nc1nc(C)cc(C)n1 (stereo not drawn) . Its measured cytotoxicity at 70.5 h is -14

Consider CCCc1noc(CN2CCCCC2Cn2cncn2)n1 (stereo not drawn) . Its measured cytotoxicity at 70.5 h is -7.74

Consider O=C(c1cscn1)N1CCCCC1c1nc2cc(F)ccc2[nH]1 (stereo not drawn) . Its measured cytotoxicity at 70.5 h is -1.08

Consider Cc1ccc2nc(CN3CCCC3c3cccnc3)cc(O)c2c1 (stereo not drawn) . Its measured cytotoxicity at 70.5 h is -2.21

Consider Cc1cc(C)n(CC(=O)N2C[C@@H]3CC[C@H](C2)N(CC2CCC2)C3)c(=O)n1 . Its measured cytotoxicity at 70.5 h is 24.1

Consider Cc1nc(C(C)Nc2ncnc3c2CCNCC3)c(C)s1 (stereo not drawn) . Its measured cytotoxicity at 70.5 h is -4.99

Consider CC(C)c1cc(CN2CCC(CC(=O)O)CC2)no1 . Its measured cytotoxicity at 70.5 h is -2.18

Consider CCOCc1nc2c(c(NC(COC)c3ccccn3)n1)CCNCC2 (stereo not drawn) . Its measured cytotoxicity at 70.5 h is -3.42

Consider COc1ccc(Cl)c(-c2noc3ncn(CCC(=O)O)c(=O)c23)c1 . Its measured cytotoxicity at 70.5 h is -20.8

Consider CN(CC(=O)N1CCCCC1Cn1cccn1)C1CC1 (stereo not drawn) . Its measured cytotoxicity at 70.5 h is 4.49

Consider Cn1cc(S(=O)(=O)NC(CO)Cc2c[nH]c3ccccc23)cn1 (stereo not drawn) . Its measured cytotoxicity at 70.5 h is -7.44

Consider Cc1c(CC(=O)N2CCN(C(C)C)CC2)nnn1-c1ccccc1 . Its measured cytotoxicity at 70.5 h is 23.6

Consider O=C(c1ccccn1)N1CCN(c2ccc(-c3cccnc3)nn2)CC1 . Its measured cytotoxicity at 70.5 h is -11.4

Consider O=c1cc2c(nn1CN1CCN(c3ccccc3)CC1)CCCC2 . Its measured cytotoxicity at 70.5 h is -15

Consider Cc1nc(C(=O)N2CCOC(Cc3ccc(F)cc3)C2)co1 (stereo not drawn) . Its measured cytotoxicity at 70.5 h is -3.27

Consider CCc1n[nH]c(C2CN(C(=O)c3ncoc3C(C)C)CCO2)n1 (stereo not drawn) . Its measured cytotoxicity at 70.5 h is -9.85

Consider Cc1cc(NC(=O)C(C)N2CCN(c3ccc(C#N)cc3F)CC2)no1 (stereo not drawn) . Its measured cytotoxicity at 70.5 h is -11.7

Consider COCc1ncn(Cc2nc(-c3ccc(OC)c(OC)c3)oc2C)n1 . Its measured cytotoxicity at 70.5 h is 27.5

Consider Cc1nn(C)c(Oc2cccc(F)c2)c1NC(=O)C1CCOCC1 . Its measured cytotoxicity at 70.5 h is -14.1

Consider COc1ccnc(N2CCC(OCCN3CCCCC3)C2)n1 (stereo not drawn) . Its measured cytotoxicity at 70.5 h is -2.49

Consider CCc1nc(NS(=O)(=O)c2ccc(F)cc2Cl)no1 . Its measured cytotoxicity at 70.5 h is -8.4

Consider CC(C)c1nc2c(n1C)CCN(CC(=O)Nc1ccncc1)C2 . Its measured cytotoxicity at 70.5 h is -7.84

Consider CCc1nnc(S(=O)(=O)Cc2cc(Cl)c3c(c2)OCO3)n1C . Its measured cytotoxicity at 70.5 h is -1.18

Consider CC(=O)N1CC[C@H]2OCC[C@@H](C(=O)Nc3cccnc3C)[C@@H]2C1 . Its measured cytotoxicity at 70.5 h is -5.24

Consider Cc1ccccc1OCCC(=O)N1CCc2nc(C)n(C)c(=O)c2CC1 . Its measured cytotoxicity at 70.5 h is -8.53

Consider CCc1nc(C)sc1CN1CC[C@](C)(O)[C@H](C)C1 . Its measured cytotoxicity at 70.5 h is -2.71

Consider N#Cc1cc(C#N)c(SCC(=O)NCc2ccc(F)cc2)nc1N . Its measured cytotoxicity at 70.5 h is 27.8

Consider CN(C)C(=O)c1ccn(-c2ccc3ccccn23)n1 . Its measured cytotoxicity at 70.5 h is -4.81

Consider O=C1COC2(CCN(CC3CC3)CC2)CN1c1ccsc1 . Its measured cytotoxicity at 70.5 h is -8.69

Consider Cc1ccc2c(c1)C(=O)NCC1(CCN(Cc3ccccc3)CC1)O2 . Its measured cytotoxicity at 70.5 h is -6.17

Consider COc1cc(Br)cc(CNC2CCCNC2=O)c1O (stereo not drawn) . Its measured cytotoxicity at 70.5 h is 2.96

Consider O=C(CSCc1ccncc1)N(Cc1ccsc1)C1CC1 . Its measured cytotoxicity at 70.5 h is 0.347

Consider CCn1cnnc1CNC(=O)c1cc(Cl)ccc1O . Its measured cytotoxicity at 70.5 h is 22.7

Consider COc1cccc(Cc2nc3c([nH]2)CC(C)(C)CNC3=O)c1OC . Its measured cytotoxicity at 70.5 h is -1.08

Consider COc1ccccc1C(=O)N(C)C1CCN(c2ccccn2)CC1 . Its measured cytotoxicity at 70.5 h is -0.00253

Consider Cc1nc(C)n(C2CCCN(C(=O)c3cscn3)C2)n1 (stereo not drawn) . Its measured cytotoxicity at 70.5 h is -2.85

Consider c1cnc(N2CCOCC3(CN(Cc4cc[nH]n4)CCO3)C2)nc1 (stereo not drawn) . Its measured cytotoxicity at 70.5 h is 7.31

Consider Cc1cc(C)c(CNC(=O)NCC(O)c2cccc(F)c2)c(=O)[nH]1 (stereo not drawn) . Its measured cytotoxicity at 70.5 h is -3.53

Consider CC(CCNC(=O)NCCc1ccc(S(N)(=O)=O)cc1)c1ccccc1 (stereo not drawn) . Its measured cytotoxicity at 70.5 h is -8.25

Consider CN1CCC(CCNC(=O)c2ccc(N(C)S(C)(=O)=O)cc2Cl)CC1 . Its measured cytotoxicity at 70.5 h is -7.69

Consider Cn1ccnc1-c1cn(CCCc2nnc(N)s2)nn1 . Its measured cytotoxicity at 70.5 h is -19.9

Consider Cc1ccc(CN2CCOC(c3cnccn3)C2)s1 (stereo not drawn) . Its measured cytotoxicity at 70.5 h is -5.54

Consider CCS(=O)(=O)N1C[C@@H]2CN(Cc3cnn(C)c3)CCO[C@@H]2C1 . Its measured cytotoxicity at 70.5 h is 2.4

Consider CCc1cc(=O)[nH]c(-n2nc(C3CC3)cc2NC(=O)C2CC2)n1 . Its measured cytotoxicity at 70.5 h is 42.7

Consider CC[C@H]1N(Cc2ccco2)CCC[C@]12CCC(=O)N2C . Its measured cytotoxicity at 70.5 h is -15.5

Consider COc1ccc(CN(C)Cc2c(C)noc2C)c(Br)c1OC . Its measured cytotoxicity at 70.5 h is -8.43
